B1: TPR 5TU (parent)
chain: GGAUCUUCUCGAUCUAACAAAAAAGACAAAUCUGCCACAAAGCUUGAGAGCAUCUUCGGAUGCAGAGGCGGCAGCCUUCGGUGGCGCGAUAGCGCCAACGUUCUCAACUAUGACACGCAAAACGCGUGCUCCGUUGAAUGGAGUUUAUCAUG

Variants of: B1
Experiment: polymerase ribozyme fitness, log enrichment relative to wild type (log ratio); higher = more active; in vitro selection for triplet polymerase activity
Variants at the floor of the assay were thinned out.

{"ALTERATION": "A39U C54U C96A", "COMPARISON_OPERATOR": "=", "polymerase ribozyme fitness (log ratio)": -2.72}
{"ALTERATION": "C35A A66G G70U C87G C96G A121U C149U", "COMPARISON_OPERATOR": "≤", "polymerase ribozyme fitness (log ratio)": -4.2}
{"ALTERATION": "C8G A30G G48A C69G G86A G143U", "COMPARISON_OPERATOR": "=", "polymerase ribozyme fitness (log ratio)": -4.06}
{"ALTERATION": "G11C G58A", "COMPARISON_OPERATOR": "=", "polymerase ribozyme fitness (log ratio)": -1.65}
{"ALTERATION": "U101G G117A G133U", "COMPARISON_OPERATOR": "=", "polymerase ribozyme fitness (log ratio)": -4.1}
{"ALTERATION": "C35U G92U", "COMPARISON_OPERATOR": "=", "polymerase ribozyme fitness (log ratio)": -0.627}
{"ALTERATION": "C27U G58C C123U", "COMPARISON_OPERATOR": "=", "polymerase ribozyme fitness (log ratio)": -1.57}
{"ALTERATION": "A17G A39C A40C A73G G94C U134G", "COMPARISON_OPERATOR": "≤", "polymerase ribozyme fitness (log ratio)": -4.2}
{"ALTERATION": "G68U C75A G81U G83A C95U C96U C116U", "COMPARISON_OPERATOR": "=", "polymerase ribozyme fitness (log ratio)": -1.31}
{"ALTERATION": "A106C G152U", "COMPARISON_OPERATOR": "=", "polymerase ribozyme fitness (log ratio)": -2.57}
{"ALTERATION": "U4G U6G C85U G141A", "COMPARISON_OPERATOR": "=", "polymerase ribozyme fitness (log ratio)": -3.39}
{"ALTERATION": "G46U A52C A89U G94A G133C", "COMPARISON_OPERATOR": "≤", "polymerase ribozyme fitness (log ratio)": -4.2}
{"ALTERATION": "G68U G128U", "COMPARISON_OPERATOR": "≤", "polymerase ribozyme fitness (log ratio)": -4.2}
{"ALTERATION": "C14G C36U G92C", "COMPARISON_OPERATOR": "≤", "polymerase ribozyme fitness (log ratio)": -4.2}
{"ALTERATION": "G34U A47U", "COMPARISON_OPERATOR": "=", "polymerase ribozyme fitness (log ratio)": -2.01}
{"ALTERATION": "A41C U53C C125G U144A", "COMPARISON_OPERATOR": "=", "polymerase ribozyme fitness (log ratio)": -2.53}
{"ALTERATION": "A22U U82A C96U", "COMPARISON_OPERATOR": "=", "polymerase ribozyme fitness (log ratio)": 0.375}
{"ALTERATION": "A52C C96A", "COMPARISON_OPERATOR": "=", "polymerase ribozyme fitness (log ratio)": -1.55}
{"ALTERATION": "A21U A52G C87U C114U U144G", "COMPARISON_OPERATOR": "=", "polymerase ribozyme fitness (log ratio)": -3.22}
{"ALTERATION": "A20C C36A", "COMPARISON_OPERATOR": "=", "polymerase ribozyme fitness (log ratio)": -4.06}
{"ALTERATION": "G140C", "COMPARISON_OPERATOR": "=", "polymerase ribozyme fitness (log ratio)": -3.16}
{"ALTERATION": "A37U A49C C63G C87G G124U", "COMPARISON_OPERATOR": "≤", "polymerase ribozyme fitness (log ratio)": -4.2}
{"ALTERATION": "U45G G86U C87A", "COMPARISON_OPERATOR": "≤", "polymerase ribozyme fitness (log ratio)": -4.2}
{"ALTERATION": "G11C G62A C87G", "COMPARISON_OPERATOR": "≤", "polymerase ribozyme fitness (log ratio)": -4.2}
{"ALTERATION": "U7G C75A G84A G94U A106U A120C", "COMPARISON_OPERATOR": "≤", "polymerase ribozyme fitness (log ratio)": -4.2}
{"ALTERATION": "C8U C10G A29U C85U C116U", "COMPARISON_OPERATOR": "≤", "polymerase ribozyme fitness (log ratio)": -4.2}
{"ALTERATION": "U4G C8U U56A G84A", "COMPARISON_OPERATOR": "=", "polymerase ribozyme fitness (log ratio)": -1.05}
{"ALTERATION": "C87U G117C U144A", "COMPARISON_OPERATOR": "=", "polymerase ribozyme fitness (log ratio)": -1.27}
{"ALTERATION": "A17C A110U", "COMPARISON_OPERATOR": "=", "polymerase ribozyme fitness (log ratio)": -4}
{"ALTERATION": "U15G A17C C27G C51A G59A C75U C87U", "COMPARISON_OPERATOR": "≤", "polymerase ribozyme fitness (log ratio)": -4.2}
{"ALTERATION": "U53A G80U C96A G143A U146C C149G", "COMPARISON_OPERATOR": "≤", "polymerase ribozyme fitness (log ratio)": -4.2}
{"ALTERATION": "G67C A97C C103G C125U C129U A142U G143C A150U", "COMPARISON_OPERATOR": "≤", "polymerase ribozyme fitness (log ratio)": -4.2}
{"ALTERATION": "U55A G94C", "COMPARISON_OPERATOR": "=", "polymerase ribozyme fitness (log ratio)": -0.443}
{"ALTERATION": "C85U A98U G117A", "COMPARISON_OPERATOR": "=", "polymerase ribozyme fitness (log ratio)": -0.373}
{"ALTERATION": "A17C A37C A52U G83U", "COMPARISON_OPERATOR": "=", "polymerase ribozyme fitness (log ratio)": -3.08}
{"ALTERATION": "G25C A26U C87G A121U C129G U151A", "COMPARISON_OPERATOR": "≤", "polymerase ribozyme fitness (log ratio)": -4.2}
{"ALTERATION": "C93G C149U", "COMPARISON_OPERATOR": "=", "polymerase ribozyme fitness (log ratio)": -4.08}
{"ALTERATION": "G46C C114U", "COMPARISON_OPERATOR": "=", "polymerase ribozyme fitness (log ratio)": -3.67}
{"ALTERATION": "G48U U53A C85U", "COMPARISON_OPERATOR": "=", "polymerase ribozyme fitness (log ratio)": -1.94}
{"ALTERATION": "A49U A73U C75A", "COMPARISON_OPERATOR": "≤", "polymerase ribozyme fitness (log ratio)": -4.2}
{"ALTERATION": "A37C G83A A122U C131U U134C", "COMPARISON_OPERATOR": "=", "polymerase ribozyme fitness (log ratio)": 0.318}
{"ALTERATION": "C8U C38U G48A A60C C72G C96A C99U C114G U139G U148G", "COMPARISON_OPERATOR": "≤", "polymerase ribozyme fitness (log ratio)": -4.2}
{"ALTERATION": "U15G A16U A41C A52C G81C G83U A106U U127A", "COMPARISON_OPERATOR": "≤", "polymerase ribozyme fitness (log ratio)": -4.2}
{"ALTERATION": "C5A U45C G58U U82C G84A", "COMPARISON_OPERATOR": "=", "polymerase ribozyme fitness (log ratio)": -3.97}
{"ALTERATION": "A24C C27G U33G C38U A47U U82A G128U", "COMPARISON_OPERATOR": "≤", "polymerase ribozyme fitness (log ratio)": -4.2}
{"ALTERATION": "A20C U31G A40U", "COMPARISON_OPERATOR": "=", "polymerase ribozyme fitness (log ratio)": -0.279}
{"ALTERATION": "A16G C93G", "COMPARISON_OPERATOR": "=", "polymerase ribozyme fitness (log ratio)": -4.02}
{"ALTERATION": "A19C C43U C51G G71A C87G C105U C108U G141C", "COMPARISON_OPERATOR": "≤", "polymerase ribozyme fitness (log ratio)": -4.2}
{"ALTERATION": "G48A C54U G94C", "COMPARISON_OPERATOR": "=", "polymerase ribozyme fitness (log ratio)": -1.21}
{"ALTERATION": "U9C A29U U31C U44A C75A C85A G141A", "COMPARISON_OPERATOR": "≤", "polymerase ribozyme fitness (log ratio)": -4.2}
{"ALTERATION": "C114G", "COMPARISON_OPERATOR": "=", "polymerase ribozyme fitness (log ratio)": -2.54}
{"ALTERATION": "C54U G136A", "COMPARISON_OPERATOR": "=", "polymerase ribozyme fitness (log ratio)": 0.306}
{"ALTERATION": "A47C A49G G83A G140A", "COMPARISON_OPERATOR": "≤", "polymerase ribozyme fitness (log ratio)": -4.2}
{"ALTERATION": "A41C U127C", "COMPARISON_OPERATOR": "=", "polymerase ribozyme fitness (log ratio)": -2.04}
{"ALTERATION": "U78A U90C", "COMPARISON_OPERATOR": "≤", "polymerase ribozyme fitness (log ratio)": -4.2}

Numbers sourced from the RNAGym collection of RNA variant scans (doi:10.1073/pnas.2313332121).
